Overview of recorded T/C for various molecules
Test system: P388 leukemia ip, CD2F1 mice, survival T/C
Test: NCI In Vivo Anticancer Drug Screen. Data for tumor model P388 Leukemia (intraperitoneal) in CD2F1 (CDF1) mice
Settings: endpoint: median survival time; dose: 12.5 mg/kg/injection; schedule: Q01DX005 (ip); vehicle: saline with Tween-80; higher = longer survival
Inconclusive results and toxic doses are left out.
parameter measured: T/C

Cc1ccc(N=C2c3ccccc3-c3ccc(NC(=O)c4ccccc4)cc32)cc1 :: 86 % of control
O=C1CN(Cc2ccccc2)CC(=O)N2Cc3ccccc3CN12 :: 98 % of control
CCn1nccc1N :: 106 % of control
CN(C)CC/C=C1/c2ccccc2Sc2ccc(Cl)cc21 :: 111 % of control
CC1OC(c2ccc3c(c2O)C(=O)c2ccc(CC(C)(O)CC(=O)O)cc2C3=O)CC(O)C1O (configuration not stated) :: 90 % of control
Cn1cccc1/C=N/N1CC(=O)N(c2cccc(C(F)(F)F)c2)CC1=O :: 100 % of control
CCCCCCCN(CCCCCCC)CCCC(O)c1cccc2ccccc12 (configuration not stated) :: 104 % of control
O=[N+]([O-])c1ccc2c(ccc3sc4ccccc4[n+]32)c1 :: 108 % of control
COc1ccc(C(C)c2cc(N=O)c(OC)cc2O)cc1 (configuration not stated) :: 91 % of control
C[C@@H](O)[C@H](NSc1ccccc1[N+](=O)[O-])C(=O)NCCc1nc(-c2nc(C(=O)NCCCBr)cs2)cs1 :: 95 % of control
CN=C(NC)c1ccc(NC(=O)/C=C/C(=O)Nc2ccc(C(=NC)NC)cc2)cc1 :: 101 % of control
CCCCN(CCCC)C(C)C(=O)c1ccc2cc(Br)c3ccccc3c2c1 (configuration not stated) :: 110 % of control
Cc1ccc(S(=O)(=O)Oc2ccc3sc4cccc(NCCN(C)C)c4c(=O)c3c2)cc1 :: 104 % of control
CCC/C(=N\NC(=S)N(C)C)c1ccccn1 :: 103 % of control
CCc1nc(N)nc(N)c1-c1ccc(N)cc1 :: 104 % of control
O=C(c1ccccc1)c1cnc2nc(-c3ccccc3)c(-c3ccccc3)nn12 :: 89 % of control
C/C(=N\NC(=S)N1CC2CCC(CC2)C1)c1cccc(C)n1 :: 112 % of control
O=C(c1ccc(Cl)cc1)c1cnc2nc(-c3ccccc3)c(-c3ccccc3)nn12 :: 98 % of control
[Cu+2].[NH-]C(=O)NC([NH-])=O.[NH-]C(=O)NC([NH-])=O :: 99 % of control
COc1cccc(/C=C/C(C)=N/NC(N)=S)c1 :: 107 % of control
CN(C)c1ccc(C2(c3ccccc3)NNC(=O)c3ccccc32)cc1 (configuration not stated) :: 92 % of control
CNC(=O)OCc1ccc(NCCN(C)C)c2c(=O)c3cc(O)ccc3sc12 :: 112 % of control

----------
System: P388 leukemia ip, CD2F1 mice, survival T/C
Assay: NCI In Vivo Anticancer Drug Screen. Data for tumor model P388 Leukemia (intraperitoneal) in CD2F1 (CDF1) mice
Conditions: endpoint: median survival time; dose: 400.0 mg/kg/injection; schedule: Q04DX002 (ip); vehicle: Klucel (hydroxypropylcellulose) (HPC); higher = longer survival
Toxic doses and inconclusive results are not listed.
Property: T/C; scope: individual compounds
parameter measured: T/C

CS(C)(=O)=NS(=O)(=O)c1ccc([N+](=O)[O-])cc1 :: 96 % of control
CC(/C=C/c1ccco1)=N\NC(=S)Nc1ccc(Br)cc1 :: 92 % of control
O=C1CN2C(=O)C1(c1ccccc1)C(=O)NC2=S (stereo not drawn) :: 106 % of control
CSC(=S)n1nc(C)c(N=Nc2cccc(C)c2C)c1C :: 100 % of control
CC1=C(O)CC(/C(C)=C\Cl)OC1=O (stereo not drawn) :: 104 % of control
C=C1C(C2=NCCN2O)OC2OC(C)(C)OC12 (stereo not drawn) :: 97 % of control
NC(=O)c1cnc2nc1NCCCCCCC2 :: 90 % of control
C=Cc1nc(=O)[nH]c(=O)[nH]1 :: 97 % of control

----------
Entries annotated with measured T/C
System: P388 leukemia ip, CD2F1 mice, survival T/C
Experiment: NCI In Vivo Anticancer Drug Screen. Data for tumor model P388 Leukemia (intraperitoneal) in CD2F1 (CDF1) mice
Settings: endpoint: median survival time; dose: 100.0 mg/kg/injection; schedule: Q01DX009 (ip); vehicle: water; higher = longer survival
Inconclusive results and toxic doses are left out.
parameter measured: T/C

ClCCc1cnc[nH]1 :: 95 % of control
O=[N+]([O-])c1cccn2nc(C3OC(CO)C(O)C3O)nc12 (stereo not given) :: 109 % of control
CCOC(=O)C(N)CSCSC (stereo not given) :: 97 % of control
COc1cccc(C(O)c2ccncc2)c1OC (stereo not given) :: 93 % of control
[NH-]C(CO)C(=O)O.[NH-]C(CO)C(=O)O.[Pd+2] (stereo not given) :: 86 % of control

----------
System: P388 leukemia ip, CD2F1 mice, survival T/C
Assay: NCI In Vivo Anticancer Drug Screen. Data for tumor model P388 Leukemia (intraperitoneal) in CD2F1 (CDF1) mice
Conditions: endpoint: median survival time; dose: 100.0 mg/kg/injection; schedule: Q04DX003 (ip); vehicle: saline with Tween-80; higher = longer survival
Toxic doses and inconclusive results are not listed.
Each entry below lists one item and its recorded T/C value.
parameter measured: T/C

CC(CC=O)CCCC(C)(C)O (stereo not given) :: 100 % of control
CN(C)[C@@H]1C(=O)C(C(=O)NCN(CCCl)CCCl)=C(O)[C@@]2(O)C(=O)C3=C(O)c4c(O)cccc4[C@@](C)(O)[C@H]3C[C@@H]12 :: 100 % of control
CC(C)(C)N1CC(C(=O)c2ccccc2)C1c1ccccc1 (stereo not given) :: 98 % of control
Cc1cc2c(cc1C)C(O)(C#Cc1ccccc1)c1c(C)ccc(C)c1C2=O (stereo not given) :: 100 % of control
Cc1ccccc1-c1nc2c(N)nc(N)nc2nc1N :: 109 % of control

----------
In this section, each of the compounds is paired with its reported T/C.
Test system: P388 leukemia ip, CD2F1 mice, survival T/C
Test: NCI In Vivo Anticancer Drug Screen. Data for tumor model P388 Leukemia (intraperitoneal) in CD2F1 (CDF1) mice
Conditions: endpoint: median survival time; dose: 50.0 mg/kg/injection; schedule: Q01DX009 (ip); vehicle: saline with Tween-80; higher = longer survival
Toxic doses and inconclusive results are not listed.
parameter measured: T/C

Cc1cc(N)c([N+](=O)[O-])cc1C :: 101 % of control
Cc1nnc(NC(=O)CCl)s1 :: 100 % of control
CCCCOC1OCN(CCCN(C)C)CC1(C)C (stereo not given) :: 108 % of control
O=c1c2ccccc2nc2ccc(Cl)nn12 :: 95 % of control
Nc1nc2c(-c3ccc([N+](=O)[O-])cc3)nnn2c2ccccc12 :: 95 % of control
O=C(NC(=S)c1cccc2ccccc12)Nc1ccc(Cl)c(Cl)c1 :: 103 % of control
Cc1cc(Cl)c2ccc(N(C)C)cc2n1 :: 119 % of control
CC1(c2ccc3c(c2)OCO3)OC(CCl)CS1 (stereo not given) :: 101 % of control
CCOC(=O)N1C(=O)C2C3CCC(C2C1=O)C1C2C(=O)N(C(=O)OCC)C(=O)C2C31 (stereo not given) :: 115 % of control
CCc1ccc2c(c1)C(O)(c1ccccc1)c1ccccc1C2(O)c1ccccc1 (stereo not given) :: 95 % of control
CC(N)c1ccccc1 (stereo not given) (tested in a mixture with another compound) :: 104 % of control
CCCCCCC(=O)/C=C/c1cc(OC)ccc1OC :: 99 % of control
CCN(CC)CCN1N=C(c2ccccc2O)OCC1=O :: 108 % of control
CC(=O)NC(Cc1c[nH]c2ccccc12)C(C)=O (stereo not given) :: 91 % of control
CCC12OCCN1CC(C)O2 (stereo not given) :: 98 % of control
CC(=O)Nc1c(Cl)c(Cl)c2c(c1Cl)C(=O)c1cc(Cl)ccc1-2 :: 90 % of control
COC(=O)c1ccc(SCCC(=O)CCl)cc1 :: 115 % of control
NNC(=O)C(=O)NCc1ccco1 :: 95 % of control
CCSC(=N)N=Nc1ccc(O)cc1 :: 99 % of control
Nc1c(OS(=O)(=O)c2ccccc2)cccc1OS(=O)(=O)c1ccccc1 :: 91 % of control
CC(C)(C)C(Br)C(=O)NN=C(c1ccccc1)c1ccccc1 (stereo not given) :: 106 % of control
O=C1NC(=O)C2CCCc3cccc1c32 (stereo not given) :: 100 % of control
S=C(c1c(Cl)cccc1Cl)N1CN2CCCN(C2)C1 :: 111 % of control
Cc1ccc2c(/C=C/c3ccc(N(C)C)cc3)ccnc2c1C :: 150 % of control
O=C(NC(=NC(=Nc1ccc(Cl)cc1)c1ccccc1)c1ccccc1)c1ccccc1 :: 92 % of control
CC1(C)CC(=O)C2=C(C1)Nn1c(nnc1C(F)(F)F)S2 :: 102 % of control
CC1(C)N=C(N)N=C(N)N1c1ccc(CCC(=O)Nc2ccc(S(=O)(=O)F)cc2)c(Cl)c1 :: 91 % of control
CC1(C)OC(=O)C(Cc2c[nH]c3ccccc23)C(=O)O1 :: 108 % of control
COC(=O)C(C#N)c1ccccn1 (stereo not given) :: 96 % of control
Clc1cccc2c(-c3ccccc3)c3cccc(Cl)c3cc12 :: 101 % of control
